- tgt: UniProt:Q582T2
- Sequence (Q582T2 1-253): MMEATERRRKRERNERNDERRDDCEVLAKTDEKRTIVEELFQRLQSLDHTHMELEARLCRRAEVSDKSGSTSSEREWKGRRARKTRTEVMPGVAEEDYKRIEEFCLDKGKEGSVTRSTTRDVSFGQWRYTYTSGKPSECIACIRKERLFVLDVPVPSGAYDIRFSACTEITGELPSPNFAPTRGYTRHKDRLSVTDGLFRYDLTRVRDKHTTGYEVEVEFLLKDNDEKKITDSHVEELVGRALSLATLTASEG
- procedure text: TLC assay for 32Pi release from [γ-32P]ATP, TbCet1
- run conditions: read-out: IC50 TbCet1 by 32P assay; 2.2 nM TbCet1, 0.2 mM ATP, 2 mM Mn2+, 10 min 37°C
Entries and their measured IC50 follow.
quantity: IC50

compound: O=C(/C=C/c1ccc(O)c(O)c1)O[C@@H]1C[C@@](O)(C(=O)O)C[C@@H](O)[C@@H]1O
tgt: UniProt:Q582T2
measured value: > 500 µM
--
compound: COc1cc(/C=C/C(=O)OC2(C(=O)O)C[C@@H](O)C(O)[C@H](O)C2)ccc1O (stereo partly drawn)
tgt: UniProt:Q582T2
measured value: > 500 µM
--
compound: O=C(C=Cc1ccccc1)OC1C=C(C(=O)O)CC(OC(=O)C=Cc2ccccc2)C1O (stereo not drawn) [Compound 6D, 3,5-dicannamolylshikimate]
tgt: UniProt:Q582T2
measured value: > 500 µM

* * *

- tgt: Lef4 (Autographa californica nuclear polyhedrosis virus, UniProt P41477)
- Construct: the N-terminal RTPase domain (aa 1 to 236) of AcNPV Lef4 capping enzyme; HisSmt3 (N, cleaved yes); made in house; host or cells: Escherichia coli
- Sequence (P41477 1-236): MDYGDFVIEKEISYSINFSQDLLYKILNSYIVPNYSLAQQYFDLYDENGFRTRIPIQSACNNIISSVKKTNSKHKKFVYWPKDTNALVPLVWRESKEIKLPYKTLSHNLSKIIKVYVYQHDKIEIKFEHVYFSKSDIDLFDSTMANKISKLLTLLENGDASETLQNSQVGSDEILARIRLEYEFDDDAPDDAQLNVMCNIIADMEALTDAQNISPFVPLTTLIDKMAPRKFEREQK
- procedure text: TLC assay for 32Pi release from [γ-32P]ATP, Lef4;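 also: Lef4 RNA triphosphatase cleaving radiolabelled ATP over 10 min at 37°C, hydrolysis set relative to inhibitor-free 5% DMSO controls, comparisons made against TbCet1 tested the same way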
- Format: biochemical, Autographa californica nucleopolyhedrovirus (AcNPV)
- run conditions: ratio in parentheses
Entries and their measured IC50/IC50 TbCet1, Lef4 follow.

compound: O=C(CCO[C@@H]1O[C@H](CO)[C@@H](O)[C@H](O)[C@H]1O)c1ccc(O)cc1 [Compound 2B]
IC50/IC50 TbCet1, Lef4: 227
--
compound: O=C(Oc1cc(C(=O)O[C@@H]2C[C@@](O)(C(=O)O)C[C@@H](OC(=O)c3cc(O)c(O)c(O)c3)[C@@H]2O)cc(O)c1O)c1cc(O)c(O)c(O)c1 [Compound 1F, 3-galloyl,5-galloyl-galloylquinic acid]
IC50/IC50 TbCet1, Lef4: 150
--
compound: O=C(/C=C/c1ccc(O)c(O)c1)OC1[C@H](OC(=O)/C=C/c2ccc(O)c(O)c2)CC(O)(C(=O)O)C[C@H]1OC(=O)/C=C/c1ccc(O)c(O)c1 (stereo in doubt) [Compound 1D, 3,4,5-Tricaffeoylquinic acid]
IC50/IC50 TbCet1, Lef4: 48
--
compound: O=C(/C=C/c1ccc(O)cc1)O[C@@H]1[C@H](O)C[C@@](O)(C(=O)O)C[C@H]1OC(=O)/C=C/c1ccc(O)cc1 [Compound 1H, 3,4-dicoumaroylquinic acid]
IC50/IC50 TbCet1, Lef4: 108
